- Test system: DU-145 prostate
- experimental-protocol: NCI tumour cell line growth inhibition, 48 h
Reported TGI values are given for each entry in this list.
readout-kind: TGI

1. Cc1nc2cccc(F)c2c(=O)n1C1CCCCNC1=O (stereo not given); > 10 µM
2. O=C(CCC(NC(=O)OCc1ccccc1)C(=O)OCc1ccccc1)Nc1ccc(OCc2ccccc2)cc1 (stereo not given); > 31.6 µM
3. CC(=O)NC(CS/N=N/c1nc[nH]c1C(N)=O)C(=O)O (stereo not given); > 100 µM
4. C=CCOc1ccc(/C(N=Nc2ccc(Cl)cc2)=N/NC(=O)c2ccccc2)cc1OC; > 100 µM
5. COc1cc(/C=C/C(=O)c2ccc(NS(=O)(=O)c3cc([N+](=O)[O-])ccc3C)cc2)cc(OC)c1OC; 10.2 µM
